Cited source for all entries: patent US20240067748A1

TARGET ENTITY: T1, monkey Trop2 protein (Sino Biological, #90893-C08H) (monkey, UniProt A0A2K5UE71 27-274)
T1 construct: bought protein; also called monkey Trop2 protein antigen (His tag)
T1 sequence: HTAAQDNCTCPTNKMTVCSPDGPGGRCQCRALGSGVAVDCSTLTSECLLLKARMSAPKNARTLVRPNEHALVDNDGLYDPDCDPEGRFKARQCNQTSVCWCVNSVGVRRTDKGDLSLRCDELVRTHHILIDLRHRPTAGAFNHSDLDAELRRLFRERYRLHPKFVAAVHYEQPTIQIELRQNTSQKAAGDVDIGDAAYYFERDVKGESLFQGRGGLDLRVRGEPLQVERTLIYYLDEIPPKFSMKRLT
PROCEDURE TEXT: BLI, Octet RED96, AHC sensor
In this section, each of the binders is paired with its reported kon.
Lab book: enter the figure in M⁻¹ s⁻¹, no units written.

The following binders have reported results that may help.
PR001130 (antibody, human IgG1, kappa, V domains shown, fully human IgG1/kappa; also called antibody No. (2)) VH: QVQLQESGPGLVKPSGTLSLTCAVSGDSISSHNWWSWVRQPPGKGLEWIGEIYHSGITSYNPSLKSRVTISVDKSKNQFSLKLNSVTAADTAMYYCARGSGVISYFDYWGQGTLVTVSS VL: DIQMTQSPSTLSASVGDRVTITCRASQSIGNWLAWYQQKPGKAPKLLIYKASSLESGVPSRFSGSGSGTEFTLTISSLQPDDFATYYCQQYDSYSPITFGQGTRLEIKR
37700
PR001152 (antibody, human IgG1, kappa, V domains shown, fully human IgG1/kappa; also called antibody No. (15)) VH: QVQLVESGGAVVQPGRSLRLSCAASGFTFSHYGMHWVRQAPGKGLEWVAVIWYDGIKSYYVESVKGRFTISRDNSKNTLYLQMDRLRAEDTAVYYCARDGGFGESNYYGLDVWGQGTTVTVSS VL: DIQLTQSPSFLSASVGDRVTITCRASQGINSYLGWYQRKPGKAPKLLIYIASTLQSGVPSRFSGSGSGTEFTLTISSLQPEDFATYYCQQLNSYPYTFGQGTKLEIKR
103000

For the next question, use this binder.
Data point: PR001133 (antibody, human IgG1, kappa, V domains shown, fully human IgG1/kappa; also called antibody No. (5)) VH: QVNLVESGGGVVQPGRSLKLSCAASGFTFSSYGMHWVRQAPGKGLEWVALIWSDGTNRYYTESVKGRFTISRDNSKNTLSLQMKSLRAEDTAVYYCAKDGWGTYGEYFQHWGQGTLVTVSS VL: DIQMTQSPSSLSASVGDRVTITCRASQNINSYLHWYQQKPGKAPKLLIYAASSLQSGVPSRFSGSGSGTDFTLTISSLQPEDFAIYYCQQSYSIPPITFGQGTRLEIKR ; kon = 59800
